- System: IGROV1 ovarian
- test.name: NCI tumour cell line growth inhibition, 48 h
parameter: TGI

The following molecules have reported results that may help.
molecule	TGI
CCCCCCCCCCCCOC1C(C(COC2OC(C3COC(C)(C)O3)C3OC(C)(C)OC23)NC(=O)Nc2ccc(C(=O)O)cc2)OC2OC(C)(C)OC21 (stereo unspecified)	4.87 µM
CC(C)C(=O)[C@@]1(C)SC[C@H]2CCN=C21	> 100 µM

Query: Returns the measured TGI for the input molecule. Input: `COc1cc(C(=O)n2c3ccc(Br)cc3c3nc4ccccc4nc32)cc(OC)c1OC`
Response: > 100 µM

Query: Returns the measured TGI for the input molecule. Input: `O=C1NC(NNc2ccccc2)=N/C1=C\c1ccccc1O`
Response: > 100 µM

Query: Returns the measured TGI for the input molecule. Input: `COC(=O)c1cc2c(s1)C(=O)c1ccccc1-2`
Response: > 100 µM
